Record form. Attribute: protein stability index. Fill in for each entry.
B1: PWWP2B (parent)
chain: TIRLRPRQVLCEKCKSTLSPPEAS

Variants of: B1
ASSAY REMARKS: protein stability index of a GFP-peptide fusion (GPS, HEK-293T) (PSI 1-6); higher = more stable;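 also: lentivirally expressed fusions sorted by FACS into six bins by GFP to DsRed ratio, PSI derived from sequencing read proportions per bin multiplied by bin number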
APPLIED CONDITIONS: c terminus: a fixed tail appended
Number only, no unit.

// recorded protein stability index for S19V : 3.18

// recorded protein stability index for S19Y : 2.94

// recorded protein stability index for A23K : 3.02

// recorded protein stability index for E22P : 2.69

// recorded protein stability index for C11S : 3.73

// recorded protein stability index for K15D : 3.58

// recorded protein stability index for P20H : 2.24

// recorded protein stability index for E12H : 3.03

// recorded protein stability index for S24P : 2.9

// recorded protein stability index for R5A : 3.34

// recorded protein stability index for S19R : 2.59

// recorded protein stability index for S19P : 3.16

// recorded protein stability index for T17D : 3.19

// recorded protein stability index for P20V : 2.9

// recorded protein stability index for T17M : 2.77

// recorded protein stability index for V9E : 3.35

// recorded protein stability index for I2V : 3.24

// recorded protein stability index for V9Q : 3.31

// recorded protein stability index for P21T : 2.69

// recorded protein stability index for L10R : 2.84

// recorded protein stability index for K13W : 2.49

// recorded protein stability index for C11D : 3.93
